assay: Safety and pharmacokinetics of intravenous citrulline, open label dose escalation in children undergoing repair of congenital heart defects; format: in vivo; details: human, plasma; 100 mg/kg intravenous, patients 9 & 10; read-out: 4 hour trough citrulline level
value-type: concentration at 4 h (µM)
One number for each entry, in µM.

(Q) Item NC(=O)NCCCC(N)C(=O)O (stereo not shown) has what recorded concentration at 4 h?
(A) 50

* * *

Test: Safety and pharmacokinetics of intravenous citrulline, open label dose escalation in children undergoing repair of congenital heart defects
Assay type: in vivo
Conditions: human, plasma; 150 mg/kg intravenous, patients 13-16; read-out: 4 hour trough citrulline level
Description: The initial goal was to test the safety and pharmacokinetics of three doses of intravenous citrulline in children undergoing surgical repair of specific congenital heart defects. […] The baseline postoperative mean arterial blood pressure was calculated as the average of mean arterial blood pressure measurements collected every 5 minutes for the 30 minutes immediately preceding the administration of the postoperative dose or infusion. […]
value-type: concentration at 4 h (µM)
One number for each entry, in µM.

(Q) Item NC(=O)NCCCC(N)C(=O)O (stereo not shown) [citrulline, 2-amino-5-(carbamoylamino)pentanoic acid] has what recorded concentration at 4 h?
(A) 80
